target: κ opioid receptor (KOR)
Sequence (P41145 whole entry): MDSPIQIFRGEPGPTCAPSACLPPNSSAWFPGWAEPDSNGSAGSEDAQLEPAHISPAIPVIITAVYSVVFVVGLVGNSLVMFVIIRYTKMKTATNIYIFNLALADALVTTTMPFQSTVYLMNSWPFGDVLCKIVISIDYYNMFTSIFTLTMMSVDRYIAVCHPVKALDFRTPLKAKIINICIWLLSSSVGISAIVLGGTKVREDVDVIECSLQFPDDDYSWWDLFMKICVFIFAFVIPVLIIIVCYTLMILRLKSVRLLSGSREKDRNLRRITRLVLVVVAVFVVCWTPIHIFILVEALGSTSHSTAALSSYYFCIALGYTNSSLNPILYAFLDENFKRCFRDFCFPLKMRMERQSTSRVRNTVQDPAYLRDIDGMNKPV
run description: protein binding radioassay
Bridges are numbered along the chain shown (N, C = ends). Where no end group is shown, it is not given here. [ ]: non-standard residue; d: D form.
measured attribute: Kd (nM)

* Y[dA]GF[dL]KCFRYPNGVLACT (disulfide 7-17, 18 residues) [DADLE-OL II] | 1080

The reported numbers originate from patent US20250326791A1.
